Recorded IC50 for compounds tested on Squalene synthase (Rattus norvegicus, UniProt Q02769), drawn from a number of studies.
Sequence (Q02769 whole entry): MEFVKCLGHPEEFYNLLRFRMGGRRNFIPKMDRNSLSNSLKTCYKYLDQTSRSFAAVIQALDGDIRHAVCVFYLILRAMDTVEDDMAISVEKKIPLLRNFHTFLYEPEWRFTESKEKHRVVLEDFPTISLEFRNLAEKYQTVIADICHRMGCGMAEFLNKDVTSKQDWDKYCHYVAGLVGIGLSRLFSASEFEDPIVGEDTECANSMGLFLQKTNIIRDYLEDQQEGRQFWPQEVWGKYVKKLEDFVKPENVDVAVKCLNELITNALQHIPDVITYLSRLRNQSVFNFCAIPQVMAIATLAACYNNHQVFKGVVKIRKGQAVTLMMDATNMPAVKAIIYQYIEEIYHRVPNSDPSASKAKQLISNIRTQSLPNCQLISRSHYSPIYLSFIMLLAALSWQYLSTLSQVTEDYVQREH
endpointLabel: IC50 (nM)

compound	unitsText	IC50
C=C(CC[C@]12O[C@H](CO)[C@@](O)(C(=O)O)[C@](C(=O)O)(O1)[C@H](O)[C@H]2O)[C@@H](OC(C)=O)[C@H](C)Cc1ccccc1	nM	395

I. CN1CC(O)(c2ccc(-c3ccc(Cl)cc3)cc2)OC2CCCCC21 (stereo not given)
II. Br.COc1ccc2cc(-c3ccc(C4(O)CN(C)C5CCCCC5O4)cc3)ccc2c1 (stereo not given)
III. C=C(CC[C@]1(C(N)=O)O[C@H](C(=O)O)[C@@](O)(C(=O)O)[C@](COC(C)=O)(C(=O)O)O1)[C@@H](OC(C)=O)[C@H](C)Cc1ccccc1
IV. COc1ccc(OCCNCc2ccccc2)cc1
Request: Ascending by IC50, please: list the compounds accordingly. Sort the labels as requested; that list is your answer.
Result: III, II, I, IV
